Provide the reported MIC of each item.
Test system: Mycobacterium tuberculosis
protocolDescription: Antimycobacterial activity against Mycobacterium tuberculosis H37Rv ATCC 27294 by agar dilution method
Format: functional
// note: answer is a bare numeric in µg/mL

Please look up its MIC: CC(C)c1ccc(NCC(O)COc2ccc3c(c2)OC2(CCN(C(=O)OC(C)(C)C)CC2)CC3=O)cc1 (stereo not given) 12.5

# repeat for COc1ccccc1NCC(O)COc1ccc2c(c1)OC1(CCN(C(=O)OC(C)(C)C)CC1)CC2=O (stereo not given) 25

Also need O=C1CC2(CCCC2)Oc2cc(OCC(O)CNc3ccccc3)ccc21 (stereo not given) , thanks. 25

Next record, please: O=C1CC2(CCCC2)Oc2cc(OCC(O)CNc3cccc(F)c3)ccc21 (stereo not given) 3.13

Can you check COc1ccc(NCC(O)COc2ccc3c(c2)OC2(CCCC2)CC3=O)cc1 (stereo not given) next? 25

Try this compound too: COc1ccc(NCC(O)COc2ccc3c(c2)OC2(CCCCC2)CC3=O)cc1 (stereo not given) 12.5

One more compound: O=C1CC2(CCCC2)Oc2cc(OCC(O)CNc3ccccc3Cl)ccc21 (stereo not given) 6.25

Now consider COc1ccccc1NCC(O)COc1ccc2c(c1)OC1(CCCCC1)CC2=O (stereo not given) and answer again. 12.5
